Target: Caspase-3 (Homo sapiens);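 further: Dose-response selectivity test against caspase-3 for candidate inhibitors of sentrin-specific proteases (SENPs)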
Sequence (P42574 whole entry): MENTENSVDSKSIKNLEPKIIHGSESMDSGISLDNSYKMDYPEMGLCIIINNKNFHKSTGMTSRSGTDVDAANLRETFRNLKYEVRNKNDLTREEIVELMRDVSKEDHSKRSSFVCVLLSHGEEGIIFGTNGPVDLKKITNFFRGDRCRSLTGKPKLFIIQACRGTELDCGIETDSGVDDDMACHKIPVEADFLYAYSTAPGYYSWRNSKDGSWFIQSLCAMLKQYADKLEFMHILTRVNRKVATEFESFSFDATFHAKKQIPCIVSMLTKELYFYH
Format: functional
Calls of active or inactive are those of the source.
Hi! Could you answer with just one of these? yes (active), no (inactive)

// known answers, use as guide
Nc1ccc(/C=C/c2ccc3ncccc3c2)cc1: yes
O=C(NNc1cc(N2CCCC2)nc(N2CCCC2)n1)c1ccc([N+](=O)[O-])cc1: no
CC(=O)Nc1ccc(C(=O)COC(=O)C2CCCCC2)c(F)c1: yes

Ask: # fetch the recorded call for `NC(=O)c1c(NC(=O)c2ccccc2)sc2c1CCC2` here
Result: yes

Ask: # fetch the recorded call for `CCN(CC)c1ccc(NC(=O)COC(=O)c2cccs2)cc1` here
Result: yes

---

Target: Large T antigen (Simian virus 40, UniProt P03070);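 further: Confirmatory-stage PubChem screen for compounds that inhibit SV40 T antigen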
Sequence (P03070 whole entry): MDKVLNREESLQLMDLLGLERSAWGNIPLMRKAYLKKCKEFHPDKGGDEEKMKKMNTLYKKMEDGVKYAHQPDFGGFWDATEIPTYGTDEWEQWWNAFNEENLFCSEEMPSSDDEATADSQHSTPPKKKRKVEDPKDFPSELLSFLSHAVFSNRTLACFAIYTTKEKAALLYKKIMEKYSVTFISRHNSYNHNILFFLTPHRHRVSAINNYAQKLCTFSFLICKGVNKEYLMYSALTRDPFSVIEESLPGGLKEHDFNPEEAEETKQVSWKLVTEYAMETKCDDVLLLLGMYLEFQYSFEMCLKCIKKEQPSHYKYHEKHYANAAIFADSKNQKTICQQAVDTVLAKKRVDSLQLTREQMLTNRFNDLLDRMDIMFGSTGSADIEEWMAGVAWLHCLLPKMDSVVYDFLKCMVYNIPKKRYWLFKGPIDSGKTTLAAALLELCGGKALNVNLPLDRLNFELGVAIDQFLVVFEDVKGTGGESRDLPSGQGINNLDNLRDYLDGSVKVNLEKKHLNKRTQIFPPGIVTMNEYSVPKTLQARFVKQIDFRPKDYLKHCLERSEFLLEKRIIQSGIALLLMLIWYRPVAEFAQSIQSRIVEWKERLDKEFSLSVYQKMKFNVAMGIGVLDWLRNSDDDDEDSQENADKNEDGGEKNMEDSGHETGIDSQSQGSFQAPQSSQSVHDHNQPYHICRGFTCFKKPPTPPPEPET
Format: functional, Betapolyomavirus macacae
The source made the active and inactive calls.
quantity: IC50

C/C(=C/c1oc2ccc(O)cc2c1[N+](=O)[O-])N(C)C: 9.41 µM (active)
COc1ccc(-n2c(=O)c3c4c(sc3n3c(S)nnc23)COC(C(C)C)C4)cc1 (stereo unspecified): 16.7 µM (active)
O=C(CN1C(=O)/C(=C\c2ccco2)SC1=S)Nc1ccc(O)cc1C(=O)O: 74.2 µM (active)
Cc1cc(C)c2c(c1)NC(C(=O)O)C1CC=CC21 (stereo unspecified): 26.8 µM (active)
COc1ccc(-n2c(/C=C/c3ccc(O)c(O)c3)nc3ccccc3c2=O)cc1: 55.9 µM (active)

Below: the item to evaluate.
Ask: Report value only: IC50, Large T antigen (Simian virus 40, UniProt P03070), `Nc1cc(C(=O)O)ccc1Nc1ccccc1`
Result: 12.5 µM (active)

---

Test: control 3'UTR Renilla luciferase suppression, dose response, counter-screen for Shn3 inhibitor project, cell-based, Clone20-Shn3RL, cherry-picked (AID 624133)
Assay type: functional
The source made the active and inactive calls.
quantity: AC50

Example results:
C=C1C(=O)c2sccc2C(c2ccc(OC)c(OC)c2)C1COC(C)=O (centres undefined): 3.62 µM (active)
CCOC(=O)c1cccc(NC2c3ccccc3C(=O)N2Cc2ccco2)c1 (centres undefined): 1.94 µM (active)
COC(=O)[C@@]12CCCCN1[C@H](c1ccc(SC3CCCCC3)c(OC)c1)[C@@H]1C(=O)N(C)C(=O)[C@@H]12: 24.2 µM (active)

Below: the item to evaluate.
Ask: Output AC50 of COc1ccccc1NC(=O)Nc1nc(C(N)Cc2ccc(C(F)(F)F)cc2)cs1 (centres undefined)
Result: 24 µM (active)

---

Biological target: Eukaryotic translation initiation factor 4E (Mus musculus)
Sequence (P63073 whole entry): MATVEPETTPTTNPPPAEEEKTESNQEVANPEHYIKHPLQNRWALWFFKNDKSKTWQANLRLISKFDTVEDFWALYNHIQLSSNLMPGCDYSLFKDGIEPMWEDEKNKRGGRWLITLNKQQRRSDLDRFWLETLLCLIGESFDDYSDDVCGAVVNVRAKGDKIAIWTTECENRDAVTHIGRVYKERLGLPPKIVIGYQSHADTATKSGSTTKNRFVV
Experiment: eIF4E–eIF4G protein interaction inhibitors, dose response, biochemical, TR-FRET (AID 855);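 further: potency for disrupting eIF4E binding to eIF4GI seen as loss of FRET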
Assay type: functional
Counter-ions that a name gives are not always drawn. Calls of active or inactive are those of the source.
Hi! Could you answer with just one of these? active, inactive

// known answers, use as guide
O=C1NC(=O)C(CCc2ccncc2)(CCc2ccncc2)C(=O)N1Cc1ccccc1: inactive
N=C(NCc1ccc2c(c1)OCO2)NC(=O)c1ccccc1: active
CCCCOc1cc(C(=O)NCCN(CC)CC)c2ccccc2n1 [DIBUCAINE HYDROCHLORIDE]: inactive

Ask: # fetch the recorded call for Cc1ccc2c(c1C)NC(C(=O)O)C1CC=CC21 (centres undefined) here
Result: active

---

Molecular target: UniProtKB P43351
Sequence (P43351 whole entry): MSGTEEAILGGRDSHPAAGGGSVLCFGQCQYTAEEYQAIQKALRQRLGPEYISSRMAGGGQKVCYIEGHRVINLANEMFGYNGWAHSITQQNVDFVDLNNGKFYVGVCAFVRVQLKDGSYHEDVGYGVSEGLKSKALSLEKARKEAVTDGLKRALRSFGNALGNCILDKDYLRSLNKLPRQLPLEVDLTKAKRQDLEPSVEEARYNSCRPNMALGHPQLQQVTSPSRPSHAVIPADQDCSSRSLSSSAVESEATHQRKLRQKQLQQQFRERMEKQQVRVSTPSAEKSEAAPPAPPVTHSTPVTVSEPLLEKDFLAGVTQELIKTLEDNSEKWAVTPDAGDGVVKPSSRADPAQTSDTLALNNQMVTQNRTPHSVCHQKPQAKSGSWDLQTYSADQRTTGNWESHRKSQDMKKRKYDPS
Assay type: functional, biochemical
Active and inactive are the calls of the source.
quantity: AC50

Example results:
Cc1c(OCC(=O)NC2CC(C)(C)NC(C)(C)C2)ccc2c1oc(=O)c1ccccc12: 27.1 µM (active)
CN1CCC(CN)(N2CCN(c3ccccc3)CC2)CC1: 23.1 µM (active)
N=C(NCc1ccc2c(c1)OCO2)NC(=O)c1ccccc1: 17.2 µM (active)

For every listed record, write down its AC50.
1. CC(C)N1CCc2c(sc(NC(=O)c3cc4cc([N+](=O)[O-])ccc4s3)c2C(N)=O)C1
2. CN1CCN(c2cc3c(c4c2[nH]c2ccccc24)C(=O)CC(C)(C)C3)CC1
3. CCCCc1nc2sc3c(SCCN(C)C)ncnc3c2c2c1CCC2

Result:
1. 10.3 µM (active)
2. 9.48 µM (active)
3. 19.7 µM (active)

---

Exercise: state measured EC50 for each of the molecules provided.
Molecular target: Peroxisome proliferator-activated receptor gamma/Nuclear receptor coactivator 3 (Homo sapiens, UniProt P37231);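 further: agonist potency for raising coactivator recruitment to the receptor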
Sequence (P37231 whole entry): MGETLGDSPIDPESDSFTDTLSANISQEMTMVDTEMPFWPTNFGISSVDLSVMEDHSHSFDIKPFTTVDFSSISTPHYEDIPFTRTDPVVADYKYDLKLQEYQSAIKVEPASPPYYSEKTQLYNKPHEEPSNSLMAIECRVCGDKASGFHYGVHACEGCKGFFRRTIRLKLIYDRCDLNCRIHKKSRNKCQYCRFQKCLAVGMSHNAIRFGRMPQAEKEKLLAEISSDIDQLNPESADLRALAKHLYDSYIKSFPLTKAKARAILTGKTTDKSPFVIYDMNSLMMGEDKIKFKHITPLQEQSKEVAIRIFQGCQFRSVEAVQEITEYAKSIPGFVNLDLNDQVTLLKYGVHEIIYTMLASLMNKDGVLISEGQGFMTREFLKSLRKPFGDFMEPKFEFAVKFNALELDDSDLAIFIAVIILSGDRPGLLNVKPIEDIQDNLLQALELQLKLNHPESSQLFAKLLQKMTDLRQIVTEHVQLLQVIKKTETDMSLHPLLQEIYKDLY
Sequence (Q9Y6Q9 whole entry, further chain): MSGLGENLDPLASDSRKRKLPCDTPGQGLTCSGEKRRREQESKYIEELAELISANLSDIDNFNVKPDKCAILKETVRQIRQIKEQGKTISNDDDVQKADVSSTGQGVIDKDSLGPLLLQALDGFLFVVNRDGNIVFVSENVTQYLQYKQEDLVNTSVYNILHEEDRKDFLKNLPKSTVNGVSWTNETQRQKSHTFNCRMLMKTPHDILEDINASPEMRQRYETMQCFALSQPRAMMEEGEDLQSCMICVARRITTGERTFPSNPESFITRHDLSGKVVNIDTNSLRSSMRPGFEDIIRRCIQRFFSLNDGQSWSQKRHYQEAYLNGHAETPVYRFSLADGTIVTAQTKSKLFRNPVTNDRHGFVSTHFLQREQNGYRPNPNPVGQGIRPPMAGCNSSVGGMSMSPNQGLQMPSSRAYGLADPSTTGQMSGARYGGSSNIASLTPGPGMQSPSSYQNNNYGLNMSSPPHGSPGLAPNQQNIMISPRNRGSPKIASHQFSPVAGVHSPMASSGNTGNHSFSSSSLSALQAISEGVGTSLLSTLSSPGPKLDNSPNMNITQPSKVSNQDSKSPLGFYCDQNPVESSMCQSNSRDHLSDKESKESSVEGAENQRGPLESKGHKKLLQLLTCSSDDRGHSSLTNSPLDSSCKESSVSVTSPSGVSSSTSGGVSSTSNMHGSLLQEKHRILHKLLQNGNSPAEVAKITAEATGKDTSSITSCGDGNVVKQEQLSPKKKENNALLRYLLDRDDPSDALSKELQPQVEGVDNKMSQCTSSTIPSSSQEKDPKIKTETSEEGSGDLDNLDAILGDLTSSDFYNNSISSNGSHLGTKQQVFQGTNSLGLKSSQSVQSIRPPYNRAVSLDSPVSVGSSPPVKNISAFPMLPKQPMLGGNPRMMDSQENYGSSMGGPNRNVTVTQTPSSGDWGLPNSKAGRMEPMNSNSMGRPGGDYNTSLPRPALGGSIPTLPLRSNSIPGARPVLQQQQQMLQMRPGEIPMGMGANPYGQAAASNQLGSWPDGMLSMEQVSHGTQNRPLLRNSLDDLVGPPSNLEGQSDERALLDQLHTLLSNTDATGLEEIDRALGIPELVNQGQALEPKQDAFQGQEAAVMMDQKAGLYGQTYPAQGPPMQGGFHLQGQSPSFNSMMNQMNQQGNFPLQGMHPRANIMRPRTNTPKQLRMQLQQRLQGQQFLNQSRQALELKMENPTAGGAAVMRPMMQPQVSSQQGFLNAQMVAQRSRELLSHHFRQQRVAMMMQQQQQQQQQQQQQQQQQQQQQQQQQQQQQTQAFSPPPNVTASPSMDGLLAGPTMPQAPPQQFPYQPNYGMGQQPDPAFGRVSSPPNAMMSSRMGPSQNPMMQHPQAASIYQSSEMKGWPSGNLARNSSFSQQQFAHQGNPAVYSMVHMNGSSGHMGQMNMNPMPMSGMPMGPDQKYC
Type: functional

O=C(c1cccc(C(F)(F)F)c1)N1CCN(c2cc(O)nnc2-c2ccccc2)CC1: > 79.4 µM (not active)

For every listed record, write down its EC50.
1. CC(C)(C)c1ccc(-c2nnc3sc(-c4ccncc4)nn23)cc1
2. COc1ccc(-c2nc(-c3ccc(NC(=O)c4ccc(Br)o4)cc3)no2)cc1OC
3. CC(C)(C)NC(=O)CSc1nc(O)cc(=O)n1-c1ccccc1F
4. Cc1cccc(NC(=O)c2sc3nc(-c4ccc(F)cc4)cn3c2C)n1
5. COc1ccc(-c2noc(Cc3ccccc3OC)n2)cc1
6. C#CCn1/c(=N/C(=O)c2ccc(Cl)s2)sc2cccc(OC)c21

Result:
["> 79.4 µM (not active)", "> 79.4 µM (not active)", "> 79.4 µM (not active)", "22.5 µM (not active)", "> 79.4 µM (not active)", "21.5 µM (not active)"]

---

Assay: Luminescence Cell-Based Dose Confirmation HTS to Identify Inhibitors of Platelet Dense Granule Release. [Related pubchem assays: 1663 (Primary HTS), 1678 (Summary of Project)]
Assay type: functional
Calls of active or inactive are those of the source.
quantity: EC50

Example results:
CCNC(=O)C1OC(n2cnc3c(N)ncnc32)C(O)C1O (configuration not stated): < 0.088 µM (active)
CC(C)(C)c1ccc(C(=O)O/N=C(\N)c2ccccc2)cc1: 4.8 µM (active)
O=C(Nc1ccccc1)C(=O)Nc1ccc2c(c1)N(C(=O)C1CC1)CCC2: 3.74 µM (active)

For every listed record, write down its EC50.
1. Cn1c(=O)oc2cc(S(=O)(=O)N3CCN(c4ccc(F)cc4)CC3)ccc21
2. CCOc1ccc2nc(NC(=O)c3ccoc3C)sc2c1
3. Nc1ccc(-c2nc3cc(N)ccc3o2)cc1
4. O=C(Nc1ccc(Cl)cc1)Nc1ccccc1C(=O)O

Result:
1. > 112 µM (not active)
2. 0.231 µM (active)
3. 29.6 µM (active)
4. 5.21 µM (active)

---

Target: Corticotropin-releasing factor receptor 2/Corticotropin-releasing factor-binding protein (Homo sapiens, UniProt P24387+Q13324)
Sequence (Q13324 whole entry): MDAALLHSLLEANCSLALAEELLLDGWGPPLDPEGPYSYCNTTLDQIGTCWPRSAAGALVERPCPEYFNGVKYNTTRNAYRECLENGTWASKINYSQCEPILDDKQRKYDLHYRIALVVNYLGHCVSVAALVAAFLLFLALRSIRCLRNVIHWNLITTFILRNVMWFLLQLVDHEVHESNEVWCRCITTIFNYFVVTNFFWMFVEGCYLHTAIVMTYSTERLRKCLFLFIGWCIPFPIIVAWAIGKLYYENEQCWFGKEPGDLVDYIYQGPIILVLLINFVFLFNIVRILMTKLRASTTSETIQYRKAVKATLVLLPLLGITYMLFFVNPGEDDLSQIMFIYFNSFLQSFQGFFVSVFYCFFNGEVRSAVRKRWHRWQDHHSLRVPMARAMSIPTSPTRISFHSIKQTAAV
Sequence (P24387 whole entry): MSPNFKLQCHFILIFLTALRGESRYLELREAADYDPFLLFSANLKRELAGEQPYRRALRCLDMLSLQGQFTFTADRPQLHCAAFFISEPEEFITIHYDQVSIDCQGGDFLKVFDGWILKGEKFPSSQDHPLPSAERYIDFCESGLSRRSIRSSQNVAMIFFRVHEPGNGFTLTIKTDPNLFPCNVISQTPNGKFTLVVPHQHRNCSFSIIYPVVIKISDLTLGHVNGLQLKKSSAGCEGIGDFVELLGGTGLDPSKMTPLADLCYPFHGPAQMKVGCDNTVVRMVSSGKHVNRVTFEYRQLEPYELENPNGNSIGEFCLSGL
Assay: Dose Response confirmation of uHTS hits for small molecule antagonists of the CRF-binding protein and CRF-R2 receptor complex.
Type: functional
Conditions: read-out: IC50_Mean
Calls of active or inactive are those of the source.
Hi! Could you answer with just one of these? class 1 (active), class 0 (inactive)

// known answers, use as guide
CCCCCCCCCOC(=O)C[n+]1csc(CCO)c1C: class 0
COC(=O)c1sc(-c2ccc(C(C)(C)C)cc2)cc1NC(=O)CSCC(=O)O: class 1
O=C(Nc1cc(Br)ccc1O)c1cc(-c2ccc3c(c2)OCO3)on1: class 0
COC(=O)c1ccc(CSc2nc3c(c(=O)n2-c2ccc(Br)cc2)SCC3)o1: class 1
NC(=O)c1ccc(C2SCC(=O)N2Cc2ccccc2)cc1 (configuration not stated): class 0

Ask: # fetch the recorded call for CCOCc1cc(CN2CCCC(CNC(=O)c3ccco3)C2)ccc1OC (configuration not stated) here
Result: class 0

Ask: # fetch the recorded call for `O=[N+]([O-])c1ccc(Sc2ccccc2)nc1` here
Result: class 1

Ask: # fetch the recorded call for `Clc1cccc(-c2nnc(SC/C=C/c3ccccc3)n2Cc2ccco2)c1` here
Result: class 1

Ask: # fetch the recorded call for `Cc1ccc(S(=O)(=O)c2nnn3c2nc(N2CCOCC2)c2ccccc23)c(C)c1` here
Result: class 1

Ask: # fetch the recorded call for `COc1ccc2c(c1)/C(=C/c1cc(OC)c(OC)c(OC)c1)C(=O)N2` here
Result: class 0

Ask: # fetch the recorded call for COc1ccc(-c2ccc(CN3C(C)C(=O)N(Cc4cn(Cc5ccco5)nn4)CCS3(=O)=O)cc2)cc1 (configuration not stated) here
Result: class 0

Ask: # fetch the recorded call for `S=C(NCc1ccc(Cl)c(Cl)c1)Nc1ccc2c(c1)OCO2` here
Result: class 0
